# TARGET OF ASSAY: T1, LysGH15 SH3b domain (residues 368–495) (staphylococcal phage GH15, 15N (and/or 13C) labelled for NMR; N-terminal SNA tag remnant omitted (PDB 2MK5 entity residues 4-131 = 368-495))
# T1 chain: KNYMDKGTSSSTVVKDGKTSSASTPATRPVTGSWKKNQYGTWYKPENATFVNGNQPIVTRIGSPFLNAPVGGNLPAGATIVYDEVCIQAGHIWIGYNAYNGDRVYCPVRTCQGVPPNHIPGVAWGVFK
# EXPERIMENT DESCRIPTION: NMR titration; 1H-15N HSQC spectra of 15N-labelled SH3b on addition of the peptide (100 mM stock in the buffer of the SH3b sample); 298 K; KD from a fit of the chemical shift perturbations; fast exchange
# CONDITION LABEL: both partners purified
pKd: −log10 of the molar value.
OBSERVED PROPERTY: pKd

BINDER: AGGGGG (synthetic peptide used as previously reported for the SH3b domain of ALE-1; Not a stretch of a named natural protein; also called the peptide; source: synthetic peptide (Sangon Biotech (Shanghai) Co., Ltd.)) [peptide “AGGGGG”]
MEASURED RESULT: ~2.52
